From: patent US7803816B2

targetSystem: recombinant human MCHR1-receptors (Homo sapiens)
Construct: expressed in transfected cells
Sequence (Q99705 whole entry): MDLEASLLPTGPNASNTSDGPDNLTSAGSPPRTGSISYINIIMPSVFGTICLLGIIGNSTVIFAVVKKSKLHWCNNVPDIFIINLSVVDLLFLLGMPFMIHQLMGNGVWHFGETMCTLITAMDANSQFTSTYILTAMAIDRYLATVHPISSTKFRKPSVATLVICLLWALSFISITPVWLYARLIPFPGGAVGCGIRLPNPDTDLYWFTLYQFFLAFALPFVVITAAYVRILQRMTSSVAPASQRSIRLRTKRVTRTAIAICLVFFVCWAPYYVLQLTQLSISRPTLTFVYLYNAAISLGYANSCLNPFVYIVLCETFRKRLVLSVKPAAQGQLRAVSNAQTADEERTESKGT
measurementNotes: MCHR filter binding assay (competition binding)
assaySetup: membranes from CHO-K1 cells expressing human MCHR1; 0.2 nM [Phe13,[125I]Tyr19]-MCH; read-out: IC50 (nM), in vitro activity (binding assay)
readoutType: IC50

Which IC50 value belongs to CCOc1nc2cc(C)ccc2n1C1CCN(CC2Cc3ccc(NC(=O)C(C)C)cc3C2)CC1 (stereo in doubt) ?
20 to 200 nM

Next up: CO[C@@H]1CN(CC2Cc3ccc(C(C)C)cc3C2)CC[C@H]1n1c(C)nc2cc(C)ccc21 (stereo partly shown)
200 to 5000 nM

Next up: "Cc1ccc2c(c1)nc(C)n2C1CCN(C[C@@H]2Cc3ccc(NC(=O)C(C)C)cc3C2)CC1"
< 20 nM

Next up: "CO[C@@H]1CN(C[C@@H]2Cc3ccc(NC(=O)C(C)C)cc3C2)CC[C@H]1n1c(C2CC2)nc2cc(C)ccc21"
20 to 200 nM
